- Assay system: Neuropilin-1 (Homo sapiens)
- Experiment: NRP-1/CendR peptide interaction modulators – biochemical, fluorescence polarization, uHTS, primary screen (AID 602438)
- Setup conditions: FAM-RPARPAR peptide binding to NRP-1, fluorescence polarization; at 25 µM; active compounds read high
The campaign covered roughly 360,000 compounds. About 3,100 (0.86%) were called active. This excerpt belongs to a sample that is enriched for actives.
Recorded inhibition values for a group of compounds are listed next.
Value type: inhibition (%)

1) O=C1CCC/C=C\C[C@@H](CC(=O)N(CCO)Cc2ccccc2)C(=O)NCCO1    4.9
2) CC(=O)N1c2ccc(S(=O)(=O)N3CCC(C(=O)NC4CCCCC4C)CC3)cc2CC1C (stereo not drawn)    21.3
3) CC(=O)N1c2ccc(S(=O)(=O)N3CCC(C(=O)NCc4ccc(F)cc4)CC3)cc2CC1C (stereo not drawn)    -3.5
4) O=C(CSCc1c(F)cccc1Cl)NCC1CCCO1 (stereo not drawn)    -9.5
5) Cc1ccc(C(C(=O)NCC2CCCO2)N(C(=O)c2snc(C(N)=O)c2N)c2ccc(C(C)C)cc2)o1 (stereo not drawn)    -5.9
6) Cc1cc(Cl)c2oc(C(=O)N(C)C(C)c3ccccn3)c(C)c2c1 (stereo not drawn)    9.3
7) O=C(COC(=O)c1ccc(S(=O)(=O)Nc2ccccc2)cc1)NCC1CCCO1 (stereo not drawn)    9.7
8) O=C1OC[C@@H]2CCCN2C(=O)[C@H](CC(=O)N(CCO)Cc2ccccc2)C/C=C\CC[C@@H]1Cc1ccc(F)cc1    4.4
